# Test system: morningglory (Ipomoea hederacea)
# Assay Details: Test C preemergence
# Type: in vivo
# Assay Context: preemergence; Rate 250 g/ha; scale 0 to 100, 0 no effect, 100 complete control
Plant response rating, Morningglory overview
API note: the answer field is a bare number with no unit suffix.

Field: example entries. Status: answers known.
COc1cc(N2CCC(n3ccc(C(C)C)n3)C2=O)ccc1Cl (stereo not shown) : 100
CCC(CC)c1ccn(C2CCN(c3ccc(F)c(C(F)(F)F)c3)C2=O)n1 (stereo not shown) : 30
CC(C)Oc1cccc(N2CCC(n3ccc(C(C)(C)C)n3)C2=O)c1 (stereo not shown) : 0
Cc1ccc(N2CCC(n3ccc(C(C)(C)C)n3)C2=O)cc1I (stereo not shown) : 100
CCC(C)c1ccn(C2OCN(c3cccc(OC(F)(F)F)c3)C2=O)n1 (stereo not shown) : 0

Lookup: Report Plant response rating, Morningglory for CCOC(=O)c1cccc(N2CCC(n3ccc(C(C)(C)C)n3)C2=O)c1 (stereo not shown) please.
Found: 10

Lookup: Report Plant response rating, Morningglory for CC(C)(C)c1ccn(C2CCN(c3ccc(F)c(Br)c3)C2=O)n1 (stereo not shown) please.
Found: 0

Lookup: Report Plant response rating, Morningglory for CCC(CC)c1ccn(C2OCN(c3cccc(OC(F)F)c3)C2=O)n1 (stereo not shown) please.
Found: 90

---

Plant response rating, Corn overview
# Tested on: corn (Zea mays)
# Assay Details: Test B preemergence
# Format: in vivo
# Assay Context: Preemergence, Rate 500 g/ha; scale 0 to 100, 0 no effect, 100 complete control
API note: the answer field is a bare number with no unit suffix.

Field: example entries. Status: answers known.
CCCC(C)c1ccn(C2CCN(c3cccc(OC)c3)C2=O)n1 (stereo not shown) : 30
O=C1C(n2ccc(C3CC3)n2)OCN1c1cccc(C(F)(F)F)c1 (stereo not shown) : 0
CC(C)(C)c1ccn(C2CCN(c3cccc(C(F)(F)F)c3)C2=O)n1 (stereo not shown) : 30
CCOc1cccc(N2CCC(n3ccc(C(C)(C)C)n3)C2=O)c1 (stereo not shown) : 70
CCCC(C)c1ccn(C2CCN(c3cccc(OCC)c3)C2=O)n1 (stereo not shown) : 30

Lookup: Report Plant response rating, Corn for CC1(c2ccn(C3OCN(c4cccc(OC(F)(F)F)c4)C3=O)n2)CC1 (stereo not shown) please.
Found: 0

Lookup: Report Plant response rating, Corn for CC1(c2ccn(C3SCN(c4cccc(OC(F)(F)F)c4)C3=O)n2)CC1 (stereo not shown) please.
Found: 0

Lookup: Report Plant response rating, Corn for Cc1ccn(C2CCN(c3cccc(C(F)(F)F)c3)C2=O)n1 (stereo not shown) please.
Found: 0

Lookup: Report Plant response rating, Corn for Cc1ccc(N2CCC(n3ccc(C(C)(C)C)n3)C2=O)cc1C(F)(F)F (stereo not shown) please.
Found: 0

Lookup: Report Plant response rating, Corn for CCCC(C)c1ccn(C2CCN(c3ccc(Cl)c(OC)c3)C2=O)n1 (stereo not shown) please.
Found: 50

Lookup: Report Plant response rating, Corn for O=C1C(n2ccc(C3CC3)n2)CCN1c1cccc(C(F)(F)F)c1 (stereo not shown) please.
Found: 0

Lookup: Report Plant response rating, Corn for Cc1ccc(N2CCC(n3ccc(C(C)(C)C)n3)C2=O)cc1I (stereo not shown) please.
Found: 0

Lookup: Report Plant response rating, Corn for CCC(C)c1ccn(C2CCN(c3ccc(C)c(OC)c3)C2=O)n1 (stereo not shown) please.
Found: 20
